The origin of these recorded values is patent US12012417B2.

system: Dengue 1 virus MY97-10245; test: High-content imaging cell-based flavivirus immunodetection (HCl-CFI) assay, Dengue 1; conditions: Dengue virus, A549, 48 h, read-out: Dengue 1 virus MY97-10245 in A549 using HCl [Inhibitor/IC50] Qualified AC50
Readout name: EC50

                              record_smiles             assayed_target  readout_name  value_reported
0  N#Cc1c(NC(=O)Cc2ccc(S(N)(=O)=O)cc2)sc2c1CCN(Cc1cc(F)ccc1F)C2  Dengue 1 virus MY97-10245          EC50     0.1 to 1 µM
1  Cc1ccccc1CN1CCc2c(sc(NC(=O)Cc3ccc(S(C)(=O)=O)cc3)c2C#N)C1  Dengue 1 virus MY97-10245          EC50     0.1 to 1 µM
2  COc1cccc(CC(=O)Nc2sc3c(c2C#N)CN(Cc2cccc(F)c2)CC3)c1F  Dengue 1 virus MY97-10245          EC50          > 1 µM
3  N#Cc1c(NC(=O)Cc2ccc3c(c2)CNS3(=O)=O)sc2c1CN(Cc1cccc(F)c1)CC2  Dengue 1 virus MY97-10245          EC50     0.1 to 1 µM
4  COc1cccc(CC(=O)Nc2sc3c(c2C#N)CN(Cc2cccc(F)c2)CC3)c1OC  Dengue 1 virus MY97-10245          EC50          > 1 µM
5  Cc1ccccc1CN1CCc2c(sc(NC(=O)Cc3ccc(S(N)(=O)=O)cc3)c2C#N)C1  Dengue 1 virus MY97-10245          EC50     0.1 to 1 µM
6  N#Cc1c(NC(=O)Cc2ccc(S(N)(=O)=O)cc2)sc2c1CCN(Cc1c(F)cccc1Cl)C2  Dengue 1 virus MY97-10245          EC50     0.1 to 1 µM
7  COc1cc(CC(=O)Nc2sc3c(c2C#N)CN(CC2CC(F)(F)C2)CC3)ccc1S(N)(=O)=O  Dengue 1 virus MY97-10245          EC50     0.1 to 1 µM

###

Reported EC50 by item:
system: Dengue 3 virus MY05-34640-WT-C6/36; test: High-content imaging cell-based flavivirus immunodetection (HCl-CFI) assay, Dengue 3; details: Dengue virus, A549, 48 h, read-out: Dengue 3 virus MY05-34640-WT-C6/36 in A549 using HCl [Inhibitor/IC50] Qualified AC50
Readout name: EC50

>>> df
                                    molecule  value_reported
 0  Cc1cc(C)cc(CN2CCc3c(sc(NC(=O)Cc4ccc(S(N)(=O)=O)cc4)c3C#N)C2)c1        < 100 nM
 1  CC(C1CCCCC1)N1CCc2sc(NC(=O)Cc3ccc(S(N)(=O)=O)cc3)c(C#N)c2C1 (stereo not shown)        < 100 nM
 2  COC(=O)c1cccc(CN2CCc3c(sc(NC(=O)Cc4ccc(S(C)(=O)=O)cc4)c3C#N)C2)c1  100 to 1000 nM
 3  COCCOc1cc(CC(=O)Nc2sc3c(c2C#N)CN(Cc2cccc(F)c2)C(C)C3)ccc1S(N)(=O)=O (stereo not shown)        < 100 nM
 4  N#Cc1c(NC(=O)Cc2ccc(S(N)(=O)=O)cc2)sc2c1CCN(CC1CCCCC1)C2  100 to 1000 nM
 5  CNS(=O)(=O)c1ccccc1CC(=O)Nc1sc2c(c1C#N)CN(Cc1cccc(F)c1)CC2        < 100 nM
 6  Cc1cccc(CN2CCc3c(sc(NC(=O)Cc4ccc(S(N)(=O)=O)cc4)c3C#N)C2)c1  100 to 1000 nM
 7  COc1cc(Cl)cc(CC(=O)Nc2sc3c(c2C#N)CN(Cc2cccc(F)c2)CC3)c1  100 to 1000 nM
 8  COc1cccc(CC(=O)Nc2sc3c(c2C#N)CN(Cc2cccc(F)c2)CC3)c1F  100 to 1000 nM
 9  N#Cc1c(NC(=O)Cc2ccc3c(c2)CNS3(=O)=O)sc2c1CN(CC1CC(F)(F)C1)CC2  100 to 1000 nM
10  CS(=O)(=O)Nc1ccc(CC(=O)Nc2sc3c(c2C#N)CN(Cc2cccc(F)c2)CC3)cc1  100 to 1000 nM
11  CC1Cc2sc(NC(=O)Cc3ccc(S(N)(=O)=O)cc3)c(C#N)c2CN1CC1CCCCC1 (stereo not shown)        < 100 nM
12  CC1(C)CS(=O)(=O)c2ccc(CC(=O)Nc3sc4c(c3C#N)CN(Cc3cccc(F)c3)C(C)(C)C4)cc21        < 100 nM
13  Cc1cc(C)cc(CN2CCc3c(sc(NC(=O)Cc4ccc(S(C)(=O)=O)cc4)c3C#N)C2)c1  100 to 1000 nM
14  CN(C)S(=O)(=O)c1ccc(CC(=O)Nc2sc3c(c2C#N)CN(CC2CCCCC2)CC3)cc1  100 to 1000 nM
15  N#Cc1c(NC(=O)Cc2ccc(S(N)(=O)=O)s2)sc2c1CN(CC1CCCCC1)CC2        < 100 nM
